Recorded values, source ChEMBL document CHEMBL3352444.

tested on: Bacillus subtilis; assay: Antibacterial activity against Bacillus subtilis ATCC 11562 by modified broth dilution method; type: functional
Label key: Met means MIC under 80 µg/mL; Not met means MIC of 80 µg/mL or more.

- Smiles String: "O=C1CC[C@@H](O)[C@@]23O[C@@]12C1(Oc2cccc4cccc(c24)O1)[C@H](O)[C@@H](O)[C@@H]3O"
  Cat: "Not met"
- Smiles String: "O[C@@H]1CC[C@H](O)[C@@]23O[C@@]12C1(Oc2cccc4cccc(c24)O1)[C@@H]1O[C@@H]1[C@@H]3O"
  Cat: "Not met"
- Smiles String: "O=C1CCC2(Oc3cccc4cccc(c34)O2)c2c(Cl)ccc(O)c21"
  Cat: "Not met"

Identify whether the compound `Oc1ccc(O)c2c1C=C[C@@H](O)C21Oc2cccc3cccc(c23)O1` records MIC below 80 µg/mL.
Met

Also `Oc1ccc(O)c2c1[C@@H](O)[C@H]1O[C@H]1C21Oc2cccc3cccc(c23)O1` , if possible.
Not met

Also `CO[C@@H]1CC(=O)[C@]23O[C@]2([C@@H](O)[C@H]2O[C@H]2C32Oc3cccc4cccc(c34)O2)[C@H]1O` , if possible.
Met

Also `O=C1C=C[C@H](O)[C@@]23O[C@@]12C1(Oc2cccc4cccc(c24)O1)[C@H](O)[C@@H](O)[C@@H]3O` , if possible.
Not met

Also `O=C1C=C[C@H](O)[C@@]23O[C@@]12C1(Oc2cccc4cccc(c24)O1)[C@@H]1O[C@@H]1[C@@H]3O` , if possible.
Met

Also `O=C1C[C@@H](O)C2(Oc3cccc4cccc(c34)O2)c2c(O)ccc(O)c21` , if possible.
Met

Also `O=C1C[C@@H](O)[C@H](O)[C@@]23O[C@@]12C1(Oc2cccc4cccc(c24)O1)[C@@H]1O[C@@H]1[C@@H]3O` , if possible.
Met

Also `O=C1C[C@H](O)[C@H](O)C2=C[C@H](O)[C@@H](O)C3(Oc4cccc5cccc(c45)O3)[C@]12O` , if possible.
Not met
